Test system: KM12
Protocol: NCI tumour cell line growth inhibition, 48 h
The source made the active and inactive calls. Rule as the data show it: active = GI50 up to about 1.1 µM and inactive = higher.
Outcomes you can answer with include only these: active, inactive

Consider the worked cases shown below.
CNC(SC)=C1C(=O)OC(C)(C)OC1=O | inactive
NNC(=O)N/N=C1\C(=O)N(c2ccc(Cl)c(Cl)c2)C(=O)C(=O)C1c1nc2ccccc2s1 (configuration not stated) | inactive
O=c1[nH][nH]c(=O)[nH]1 | inactive
CN(C)CCCNc1c(C#N)[n+]([O-])c2cc(Cl)ccc2[n+]1[O-] | inactive
CC1(Cl)CCC2(CC(Br)=CC3OC32C)CC1Br (configuration not stated) | inactive

// query Call for entry O=C(NC1C=CCC2C(=O)N(c3ccccc3)C(=O)C12)OCc1ccccc1 (configuration not stated) :
// result inactive
